Taken from patent US5639751A.

Reported ED50 by item:
System: male CFLP mice
assayComment: Anticonvulsive effect in mice, nicotine
Type: in vivo
measurementContext: Mus musculus, po
# unit: mg/kg | format: bare number

Ask | Fill blank: measured ED50 of the compound CC(=O)N1N=C(c2ccc(NC(=O)CN)cc2)c2cc3c(cc2CC1C)OCO3 (stereo not shown) [Example 73] is ____.
Reply | 53

Ask | Look up ED50: CC(=O)N1N=C(c2ccc(N)cc2)c2cc3c(cc2CC1C)OCO3 (stereo not shown) [Example 15 (16)]
Reply | 45

Ask | Consider the compound shown here: CNC(=O)N1N=C(c2ccc(N)cc2)c2cc3c(cc2CC1C)OCO3 (stereo not shown) [Example 98] What is its recorded ED50?
Reply | 19
